- Test system: SNB-78
- test_details: NCI tumour cell line growth inhibition, 48 h
Calls of active or inactive are those of the source. Rule as the data show it: active = GI50 up to about 1.1 µM and inactive = higher.
Would you kindly list GI50 for each of these compounds?

Worked examples follow.
N#CN1CC[C@@H]2CC3(CCC2C1)OCCO3 (stereo not given in full) | > 100 µM (inactive)
[O-][Cl+3]([O-])([O-])O.c1ccc(/N=c2\snc(-c3ccccc3)s2)cc1 | > 100 µM (inactive)
C=C(C[N+](C)(C)C)N/N=C/c1oc(-c2ccc(OC)c(OC)c2)c(-c2ccc(OC)c(OC)c2)c1[N+](=O)[O-] | 36.4 µM (inactive)
CC1(C)OC(=O)C(c2ccsc2)C(=O)O1 | > 100 µM (inactive)

Okay, now this compound:
So what does the record say about GI50 for O=C(Nc1ccc(C(F)(F)F)cc1[N+](=O)[O-])C(=O)Nn1c(S)nc2ccccc2c1=O ?
> 100 µM (inactive)

----------
- Test system: KM12
- test_details: NCI tumour cell line growth inhibition, 48 h
Activity calls are given as the source filed them. No stated cut-off is given here; in the data, active = GI50 up to about 1.1 µM and inactive = higher.
Result category, one only: label 1 = active, label 0 = inactive

As a guide, the following entries are already answered.
CSc1[nH]nc(N)c1C(=O)Nc1ccccc1 | label 0
COc1cc(Nc2nc3c(N)cc(C(F)(F)F)cc3nc2-c2ccccc2)cc(OC)c1OC | label 0
COc1cc2c(cc1OC)CC(=O)c1cc(OC)c(OC)cc1/C=C\2 | label 0
Cc1nc2c(=O)n(-c3ccccc3)c(=O)n(-c3ccccc3)c2o1 | label 0
CC1=NOC2(C1)/C(=N/O)CCC/C2=N\O (stereo not drawn) | label 0
C=CCN1C(=O)/C(=C/c2ccc(C)cc2)N=C1SC/C=C/C | label 0

Hey, what did the test say about O=S1(=O)OCCOS(=O)(=O)C1Cl ?
label 0

Hey, what did the test say about COc1ccc(NC(C)=O)cc1N1C(=O)/C(=C\c2cccc(Oc3ccccc3)c2)SC1c1ccccc1 (stereo not drawn) ?
label 0

Hey, what did the test say about COc1ccccc1N1C(=O)/C(=C\c2cc(OC)c(OC)c(OC)c2)S(=O)(=O)C1c1ccccc1 (stereo not drawn) ?
label 0

Hey, what did the test say about Nc1c(-c2nc3ccccc3[nH]2)sc(=S)n1-c1ccccc1 ?
label 0

Hey, what did the test say about [N-]=[N+]=Nc1c(N2CCOCC2)c(Cl)nc2ccccc12 ?
label 0

Hey, what did the test say about COc1cc2cccc(/N=C\c3cccc(OC)c3OC(C)C)c2cc1OC ?
label 0

----------
- Tested on: EKVX
- test_details: NCI tumour cell line growth inhibition, 48 h
Activity calls are given as the source filed them. No stated cut-off is given here; in the data, active = GI50 up to about 1.1 µM and inactive = higher.
measurement_name: GI50

CC(C)=CC(=O)CC(=O)C(=O)Nc1ccc(C)c(C)c1 | > 100 µM (inactive)
COC(=O)CP1(=O)OC2C(C3CCC2(C)C3(C)C)N1c1cc(C(F)(F)F)cc(C(F)(F)F)c1 (stereo not given) | 30.5 µM (inactive)
OC1C2CCCCN2C[C@@H](O)[C@H]1O (stereo not given in full) | > 100 µM (inactive)
Cc1cccc(-n2c(=S)[nH]c3c(sc(=O)n3-c3ccccc3C)c2=O)c1 | > 100 µM (inactive)

Okay, now this molecule:
So what does the record say about GI50 for O=C(CN1CCCCC1)Nc1ccc2sc3ccccc3c(=O)c2n1 ?
22.7 µM (inactive)

----------
- System: NCI-H522
- test_details: NCI tumour cell line growth inhibition, 48 h
Activity calls are given as the source filed them. Cut-off read from the data, not from the text of the source: active = GI50 up to about 1.1 µM and inactive = higher.
Result category, one only: 1.0 for active, 0.0 for inactive

Hey, what did the test say about Cc1cccc(CC(Cc2c(C)cccc2C(=O)O)C(=O)O)c1 (stereo unspecified) ?
0.0

Hey, what did the test say about O=C(N/N=C(\c1nc2ccc(Cl)cc2nc1O)C(O)c1ccccc1Cl)c1ccncc1 (stereo unspecified) ?
0.0

Hey, what did the test say about NC(=O)c1c[se]c(C2OC(CO)C(O)C2O)n1 (stereo unspecified) ?
0.0

Hey, what did the test say about C1=CC=C2NCCSCC/N=C3/C=CC=CC=C3NCCSCC/N=C\2C=C1 ?
0.0

Hey, what did the test say about O=C(O)[C@H](NS(=O)(=O)c1ccc(F)cc1)c1ccccc1 ?
0.0

Hey, what did the test say about O=C(NC1=C(Cl)C(=O)c2ccccc2C1=O)C(=O)c1c(O)c2ccccc2oc1=O ?
0.0

Hey, what did the test say about COC(=O)CCCC(=O)/C(=N\Nc1ccc(Cl)cc1)Nc1c(Cl)cccc1Cl ?
0.0
